Reference source: ChEMBL document CHEMBL1255409

Test system: Anaerococcus prevotii
protocolText: Antimicrobial activity against Anaerococcus prevotii under anaerobic conditions after 44 hrs by CLSI-M11-47 protocol based agar dilution method
Type: functional
endpoint: MIC90 (µg/mL)
Return type: number; implicit unit µg/mL.

Task item: Which value of MIC90 has been reported for Cc1ncc([N+](=O)[O-])n1CCO [METRONIDAZOLE] in the records?
Reply: 2

Task item: For the compound CCO/N=C(\C(=O)N[C@@H]1C(=O)N2C(C(=O)[O-])=C(Sc3nc(-c4cc[n+](C)cc4)cs3)CS[C@H]12)c1nsc(NP(=O)(O)O)n1 [CEFTAROLINE FOSAMIL] , what MIC90 is on record?
Reply: 0.125

Task item: So what does the record say about MIC90 for CCC[C@@H]1C[C@@H](C(=O)N[C@@H]([C@H]2O[C@H](SC)[C@H](O)[C@@H](O)[C@H]2O)[C@H](C)Cl)N(C)C1 [CLINDAMYCIN] ?
Reply: 128

Task item: Query: MIC90; subject: CO/N=C(\C(=O)N[C@@H]1C(=O)N2C(C(=O)O)=C(CSc3nc(=O)c(O)nn3C)CS[C@H]12)c1csc(N)n1 [CEFTRIAXONE]
Reply: 0.5
